The entries below come with measured Inhibition rate (lipid peroxide formation) values attached.
# Test system: lipid peroxide formation in rat brain tissue homogenate
# assay: Activity to inhibit lipid peroxide formation in rat brain tissue homogenate (TBA method)
# Format: biochemical
# measurementConditions: 10^-5 M; 5% rat brain homogenate, 37° C., 1 hour; n=3, mean; vs. DMSO reference
Number only, in %; omit the unit.

Below, each entry is followed by its recorded Inhibition rate (lipid peroxide formation) result.
>>> numericreadout("CCCCCCCCCCOc1ccc(C2=C(O)C(C)OC2=O)cc1 (centres unmarked)")
100.0
>>> numericreadout("CCCCCOc1ccc(C2=C(O)COC2=O)cc1")
57.1
>>> numericreadout("CCCCCCCCCCCCCCCCCCOc1ccc(C2=C(O)COC2=O)cc1")
80.1

// query Item CCCCCCCCCCCOc1ccc(C2=C(O)C(c3ccccc3)OC2=O)cc1 (centres unmarked) has what recorded Inhibition rate (lipid peroxide formation)?
// result 100.0

// query Give its Inhibition rate (lipid peroxide formation) value. Item: Cc1c(C)c2c(c(C)c1O)CC[C@@](C)(CCC[C@H](C)CCC[C@H](C)CCCC(C)C)O2
// result 44.9
